Where do these numbers come from? They come from ChEMBL document CHEMBL4316585.

Test system: SH-SY5Y
ASSAY_TEXT: Neurotoxicity against human SH-SY5Y cells assessed as cell viability at 10 to 40 uM after 24 hrs […] relative to control
Format: toxicity, cell-based
ASSAY_CONTEXT: sh-sy5y, 24 h, 40 µM

# COMPOUND_STRING, Activity
records = [
    ("COCOc1ccc(C(=O)/C=C/c2cccc(C)c2)c(O)c1OCOC", "Non-Toxic"),
    ("COc1ccc(/C=C/C(=O)c2ccc(O)c(O)c2O)cc1", "Non-Toxic"),
    ("Cc1cccc(/C=C/C(=O)c2cc(O)cc(O)c2)c1", "Non-Toxic"),
]
